Values compiled from patent US11787825B2.

molecules and their reported pH 7 solubility
recorded conditions: pH 7.4

Completed entries (count: 3):
Sure, the documented pH 7 solubility for CC(C)(CC(=O)N(c1nn(CC(F)(F)F)c2c(-c3ccc(C#CC(C)(C)S(C)(=O)=O)nc3[C@H](Cc3cc(F)cc(F)c3)NC(=O)Cn3nc(C(F)(F)F)c4c3C(F)(F)[C@@H]3C[C@H]43)ccc(Cl)c12)S(C)(=O)=O)c1c(CC(=O)O)cc(C(N)=O)cc1OP(=O)(O)O [Compound 68] is <1/65 μM

// pH 7 solubility value for CC(C)(CC(=O)N(c1nn(CC(F)(F)F)c2c(-c3ccc(C#CC(C)(C)S(C)(=O)=O)nc3[C@H](Cc3cc(F)cc(F)c3)NC(=O)Cn3nc(C(F)(F)F)c4c3C(F)(F)[C@@H]3C[C@H]43)ccc(Cl)c12)S(C)(=O)=O)c1c(CC(=O)N[C@@H](CC(=O)O)C(=O)O)cc(C(N)=O)cc1OP(=O)(O)O [Compound 69] : 3/75 μM

For reference, reported pH 7 solubility for Cc1cc(C(=O)N[C@@H](CC(=O)O)C(=O)O)cc(OP(=O)(O)O)c1C(C)(C)CC(=O)N(c1nn(CC(F)(F)F)c2c(-c3ccc(C#CC(C)(C)S(C)(=O)=O)nc3[C@H](Cc3cc(F)cc(F)c3)NC(=O)Cn3nc(C(F)(F)F)c4c3C(F)(F)[C@@H]3C[C@H]43)ccc(Cl)c12)S(C)(=O)=O [Compound 65] stands at 7/68 μM

Turning to the following molecule.
The reported value for CC(C)(C#Cc1ccc(-c2ccc(Cl)c3c(N(C(=O)Cc4ccccc4OP(=O)(O)O)S(C)(=O)=O)nn(CC(F)(F)F)c23)c([C@H](Cc2cc(F)cc(F)c2)NC(=O)Cn2nc(C(F)(F)F)c3c2C(F)(F)[C@@H]2C[C@H]32)n1)S(C)(=O)=O [Compound 45] in terms of pH 7 solubility is 1/1 μM

###

Entries and their pH 2 solubility values follow.
recorded conditions: pH 2

Notebook: CC(C)(CC(=O)N(c1nn(CC(F)(F)F)c2c(-c3ccc(C#CC(C)(C)S(C)(=O)=O)nc3[C@H](Cc3cc(F)cc(F)c3)NC(=O)Cn3nc(C(F)(F)F)c4c3C(F)(F)[C@@H]3C[C@H]43)ccc(Cl)c12)S(C)(=O)=O)c1c(CC(=O)O)cc(C(N)=O)cc1OP(=O)(O)O [Compound 68] , pH 2 solubility read as <1/65 μM

The record that follows has no pH 2 solubility shown yet.
Record CC(C)(C#Cc1ccc(-c2ccc(Cl)c3c(N(C(=O)Cc4ccc(OP(=O)(O)O)cc4)S(C)(=O)=O)nn(CC(F)(F)F)c23)c([C@H](Cc2cc(F)cc(F)c2)NC(=O)Cn2nc(C(F)(F)F)c3c2C(F)(F)[C@@H]2C[C@H]32)n1)S(C)(=O)=O [Compound 51] . Reported pH 2 solubility: 1/100 μM

###

assay summary: physchem
recorded conditions: 25 °C, fassif, thermodynamic from solid
Parameter solubility: see the listing below.
Just the number in µg/mL, nothing appended.

The compound listed as CC(C)(C#Cc1ccc(-c2ccc(Cl)c3c(N(C(=O)CNC(=O)OCOP(=O)(O)O)S(C)(=O)=O)nn(CC(F)(F)F)c23)c([C@H](Cc2cc(F)cc(F)c2)NC(=O)Cn2nc(C(F)(F)F)c3c2C(F)(F)[C@@H]2C[C@H]32)n1)S(C)(=O)=O has a reported solubility of 883

We now examine a further compound.
The compound listed as CN(CC(=O)N(c1nn(CC(F)(F)F)c2c(-c3ccc(C#CC(C)(C)S(C)(=O)=O)nc3[C@H](Cc3cc(F)cc(F)c3)NC(=O)Cn3nc(C(F)(F)F)c4c3C(F)(F)[C@@H]3C[C@H]43)ccc(Cl)c12)S(C)(=O)=O)C(=O)OCOP(=O)(O)O shows solubility equal to 674

###

Measured pH 2 solubility, listed per entry.
recorded conditions: pH 2

Reported pH 2 solubility for CN(C(=O)N(c1nn(CC(F)(F)F)c2c(-c3ccc(C#CC(C)(C)S(C)(=O)=O)nc3[C@H](Cc3cc(F)cc(F)c3)NC(=O)Cn3nc(C(F)(F)F)c4c3C(F)(F)[C@@H]3C[C@H]43)ccc(Cl)c12)S(C)(=O)=O)c1ccccc1OP(=O)(O)O [Compound 54] was 1/63 μM

Continuing:
Entry under test: CC(C)(Cc1ccccc1OP(=O)(O)O)C(=O)N(c1nn(CC(F)(F)F)c2c(-c3ccc(C#CC(C)(C)S(C)(=O)=O)nc3[C@H](Cc3cc(F)cc(F)c3)NC(=O)Cn3nc(C(F)(F)F)c4c3C(F)(F)[C@@H]3C[C@H]43)ccc(Cl)c12)S(C)(=O)=O [Compound 46] . Its pH 2 solubility was 1/66 μM

For this molecule ( Cc1cc(P(=O)(O)O)cc(OP(=O)(O)O)c1C(C)(C)CC(=O)N(c1nn(CC(F)(F)F)c2c(-c3ccc(C#CC(C)(C)S(C)(=O)=O)nc3[C@H](Cc3cc(F)cc(F)c3)NC(=O)Cn3nc(C(F)(F)F)c4c3C(F)(F)[C@@H]3C[C@H]43)ccc(Cl)c12)S(C)(=O)=O [Compound 57] ), measured pH 2 solubility is 1/100 μM

get_value(item= Cc1cc(CC(=O)O)c(C(C)(C)CC(=O)N(c2nn(CC(F)(F)F)c3c(-c4ccc(C#CC(C)(C)S(C)(=O)=O)nc4[C@H](Cc4cc(F)cc(F)c4)NC(=O)Cn4nc(C(F)(F)F)c5c4C(F)(F)[C@@H]4C[C@H]54)ccc(Cl)c23)S(C)(=O)=O)c(OP(=O)(O)O)c1 [Compound 44] , readout=pH 2 solubility) returns 1/100 μM

###

Measured solubility by item
assay summary: physchem
recorded conditions: fed state simulated intestinal fluid (FeSSIF), 25 °C, fessif, thermodynamic from solid
Answer with the value and then the unit.

# count of solved cases: 4
# compound CC(C)(C#Cc1ccc(-c2ccc(Cl)c3c(N(C(=O)CCCN(CC(=O)O)C(=O)OCOP(=O)(O)O)S(C)(=O)=O)nn(CC(F)(F)F)c23)c([C@H](Cc2cc(F)cc(F)c2)NC(=O)Cn2nc(C(F)(F)F)c3c2C(F)(F)[C@@H]2C[C@H]32)n1)S(C)(=O)=O ; its solubility = 5830 µg/mL

Record CC(C)(C#Cc1ccc(-c2ccc(Cl)c3c(N(C(=O)CCC(CC(=O)O)NC(=O)OCOP(=O)(O)O)S(C)(=O)=O)nn(CC(F)(F)F)c23)c([C@H](Cc2cc(F)cc(F)c2)NC(=O)Cn2nc(C(F)(F)F)c3c2C(F)(F)[C@@H]2C[C@H]32)n1)S(C)(=O)=O (stereo in doubt) . Reported solubility: 454 µg/mL

Just so you know, measured solubility for CC(C)(C#Cc1ccc(-c2ccc(Cl)c3c(N(C(=O)CCCC(=O)OCOP(=O)(O)O)S(C)(=O)=O)nn(CC(F)(F)F)c23)c([C@H](Cc2cc(F)cc(F)c2)NC(=O)Cn2nc(C(F)(F)F)c3c2C(F)(F)[C@@H]2C[C@H]32)n1)S(C)(=O)=O came out at 130 µg/mL

Lab note: measured solubility of CC(C)(C#Cc1ccc(-c2ccc(Cl)c3c(NS(C)(=O)=O)nn(CC(F)(F)F)c23)c([C@H](Cc2cc(F)cc(F)c2)NC(=O)Cn2nc(C(F)(F)F)c3c2C(F)(F)[C@@H]2C[C@H]32)n1)S(C)(=O)=O [Intermediate 5, reference compound] was 4.2 µg/mL

Further cases:
Record CN(C)CC(=O)N(c1nn(CC(F)(F)F)c2c(-c3ccc(C#CC(C)(C)S(C)(=O)=O)nc3[C@H](Cc3cc(F)cc(F)c3)NC(=O)Cn3nc(C(F)(F)F)c4c3C(F)(F)[C@@H]3C[C@H]43)ccc(Cl)c12)S(C)(=O)=O . Reported solubility: 6 µg/mL

Entry CC(C)(C#Cc1ccc(-c2ccc(Cl)c3c(N(C(=O)/C=C/C(=O)O)S(C)(=O)=O)nn(CC(F)(F)F)c23)c([C@H](Cc2cc(F)cc(F)c2)NC(=O)Cn2nc(C(F)(F)F)c3c2C(F)(F)[C@@H]2C[C@H]32)n1)S(C)(=O)=O — recorded solubility = 45 µg/mL

Reported solubility for CN(C)CCCC[C@@H](C(=O)N(c1nn(CC(F)(F)F)c2c(-c3ccc(C#CC(C)(C)S(C)(=O)=O)nc3[C@H](Cc3cc(F)cc(F)c3)NC(=O)Cn3nc(C(F)(F)F)c4c3C(F)(F)[C@@H]3C[C@H]43)ccc(Cl)c12)S(C)(=O)=O)N(C)C was 1 µg/mL

###

recorded conditions: pH 2
readout name: pH 2 solubility

Below, 3 molecules whose answers are already recorded.
The recorded pH 2 solubility for entry CC(C)(C#Cc1ccc(-c2ccc(Cl)c3c(N(C(=O)/C=C/C(=O)N[C@@H](CC(=O)O)C(=O)O)S(C)(=O)=O)nn(CC(F)(F)F)c23)c([C@H](Cc2cc(F)cc(F)c2)NC(=O)Cn2nc(C(F)(F)F)c3c2C(F)(F)[C@@H]2C[C@H]32)n1)S(C)(=O)=O equals 1/95 μM

Recorded result, Cc1cc(C(=O)N[C@@H](CC(=O)O)C(=O)O)cc(OP(=O)(O)O)c1C(C)(C)CC(=O)N(c1nn(CC(F)(F)F)c2c(-c3ccc(C#CC(C)(C)S(C)(=O)=O)nc3[C@H](Cc3cc(F)cc(F)c3)NC(=O)Cn3nc(C(F)(F)F)c4c3C(F)(F)[C@@H]3C[C@H]43)ccc(Cl)c12)S(C)(=O)=O , pH 2 solubility: 7/68 μM

Item: CC(C)(CC(=O)N(c1nn(CC(F)(F)F)c2c(-c3ccc(C#CC(C)(C)S(C)(=O)=O)nc3[C@H](Cc3cc(F)cc(F)c3)NC(=O)Cn3nc(C(F)(F)F)c4c3C(F)(F)[C@@H]3C[C@H]43)ccc(Cl)c12)S(C)(=O)=O)c1c(CC(=O)O)cccc1OP(=O)(O)O | pH 2 solubility: 7/94 μM

Kindly consider the entry below.
The value of pH 2 solubility measured for the molecule Cc1cc(CC(=O)NCC(=O)O)c(C(C)(C)CC(=O)N(c2nn(CC(F)(F)F)c3c(-c4ccc(C#CC(C)(C)S(C)(=O)=O)nc4[C@H](Cc4cc(F)cc(F)c4)NC(=O)Cn4nc(C(F)(F)F)c5c4C(F)(F)[C@@H]4C[C@H]54)ccc(Cl)c23)S(C)(=O)=O)c(OP(=O)(O)O)c1 turned out to be 1/85 μM
